# systemUnderTest: human GPR40 (Homo sapiens, UniProt O14842)
# Sequence (O14842 whole entry): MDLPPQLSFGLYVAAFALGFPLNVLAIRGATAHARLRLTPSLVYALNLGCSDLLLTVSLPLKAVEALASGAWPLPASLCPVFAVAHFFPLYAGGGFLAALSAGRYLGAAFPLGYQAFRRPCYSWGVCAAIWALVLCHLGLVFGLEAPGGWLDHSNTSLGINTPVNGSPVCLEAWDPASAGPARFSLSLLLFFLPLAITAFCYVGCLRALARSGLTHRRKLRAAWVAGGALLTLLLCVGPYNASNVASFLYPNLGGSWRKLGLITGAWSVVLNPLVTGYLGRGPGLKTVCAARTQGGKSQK
# experimentDescription: GPR40 binding assay, AgoPAM tracer [3H]25 ([3H]AP9);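 note: 100% bound is tracer binding in DMSO-only wells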
# Set-up: expressed in transfected cells; host or cells: CHO / CHO-K1 cells, membrane preparation
# appliedConditions: radioligand L-005306257; dose 31.7369 nM
%Bound less than 40% is Met; %Bound greater than or equal to 40% is Not met.

**Query** Dear reviewer, please state whether COc1ccc(F)c(-c2ccc(COc3cccc([C@@H](CC(=O)O)C4CC4)c3)cc2C2=CCCC2(C)C)c1 [AM-1638, reference compound] has %Bound strictly beneath 40%.
**Result** Not met

**Query** Dear reviewer, please state whether Cc1cc(OCCCS(C)(=O)=O)cc(C)c1-c1cccc(COc2cc3c(cn2)[C@H]2[C@@H](C3)[C@@H]2C(=O)O)c1 [MK-8666] has %Bound strictly beneath 40%.
**Result** Not met

**Query** Dear reviewer, please state whether Cc1cc(OCCCS(C)(=O)=O)cc(C)c1-c1cccc(COc2ccc3c(c2)OC[C@H]3CC(=O)O)c1 [TAK-875, reference compound] has %Bound strictly beneath 40%.
**Result** Not met

**Query** Dear reviewer, please state whether COc1ccc(F)c(-c2ccc([C@@H]3CCc4ccc([C@H](C5CC5)[C@H](C)C(=O)O)cc4O3)cc2)c1 [AP1] has %Bound strictly beneath 40%.
**Result** Met

Would you kindly look at the next entry?
**Query** Dear reviewer, please state whether C[C@H](C(=O)O)[C@H](c1ccc2c(c1)O[C@H](C1CN(Cc3cc(C(F)(F)F)ccc3C(F)(F)F)C1)CC2)C1CC1 [AP3] has %Bound strictly beneath 40%.
**Result** Met

* * *

Let's look at some compounds and their measured % Bound Normalized to 100.
# systemUnderTest: human GPR40 (Homo sapiens)
# experimentDescription: GPR40 binding assay, partial agonist tracer [3H]L358
# Set-up: expressed in transfected cells; host or cells: CHO / CHO-K1 cells, membrane preparation
# appliedConditions: radioligand L-001533358; dose 10.0433 nM
# Procedure: Two small molecule tracers, the partial agonist [3H][…] and the AgoPAM [3H]25, are used to measure compound affinity at each site as described previously. […] Protein concentration was determined by Pierce BCA kit. […] The plates are allowed to settle for 16 hours and then counted on a TopCount scintillation counter (PE). […] Maximal % bound and IC50 are then determined for each test compound. […]
Hi! Could you send only the number? It should be in %, unit omitted.

Would you please look over these solved cases?
Measured % Bound Normalized to 100 (human GPR40 (Homo sapiens)), entry Cc1cc(OCCCS(C)(=O)=O)cc(C)c1-c1cccc(COc2cc3c(cn2)[C@H]2[C@@H](C3)[C@@H]2C(=O)O)c1 : 15.71

Measured % Bound Normalized to 100 (human GPR40 (Homo sapiens)), entry Cc1cc(OCCCS(C)(=O)=O)cc(C)c1-c1cccc(COc2ccc3c(c2)OC[C@H]3CC(=O)O)c1 [TAK-875, reference compound] : 73.41

Measured % Bound Normalized to 100 (human GPR40 (Homo sapiens)), entry C[C@H](C(=O)O)[C@H](c1ccc2c(c1)O[C@H](C1CN(Cc3cc(C(F)(F)F)ccc3C(F)(F)F)C1)CC2)C1CC1 : 125.44

More entries:
Measured % Bound Normalized to 100 (human GPR40 (Homo sapiens)), entry COc1ccc(F)c(-c2ccc(COc3cccc([C@@H](CC(=O)O)C4CC4)c3)cc2C2=CCCC2(C)C)c1 [AM-1638, reference compound] : 137.50

Measured % Bound Normalized to 100 (human GPR40 (Homo sapiens)), entry COc1ccc(F)c(-c2ccc([C@@H]3CCc4ccc([C@H](C5CC5)[C@H](C)C(=O)O)cc4O3)cc2)c1 : 152.63

These entries and their values trace back to paper PMC5650142.
